B1: 6NMW (parent)
chain: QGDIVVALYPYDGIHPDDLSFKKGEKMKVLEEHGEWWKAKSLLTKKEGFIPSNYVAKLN

- Variants of: B1
- ASSAY_NAME: folding stability dG (cDNA display proteolysis); higher = more stable
- MEASUREMENT_CONTEXT: PBS, room temperature
Hi, to clarify the labels: MET covers folding stability dG from 2 kcal/mol upward, NOT MET covers anything below 2 kcal/mol.

>>> discrete_label("G48S")
"NOT MET"
>>> discrete_label("G2T")
"MET"
>>> discrete_label("Y11V")
"NOT MET"
>>> discrete_label("W36A")
"NOT MET"
>>> discrete_label("L30S")
"NOT MET"
>>> discrete_label("A39Y")
"NOT MET"
>>> discrete_label("Y9D")
"NOT MET"
>>> discrete_label("Y54F")
"MET"
>>> discrete_label("S52Y")
"MET"
>>> discrete_label("S41E")
"NOT MET"
>>> discrete_label("Y9R")
"MET"
>>> discrete_label("G13K")
"MET"
>>> discrete_label("V55G")
"NOT MET"
>>> discrete_label("L30M")
"MET"
>>> discrete_label("Y54E")
"NOT MET"
>>> discrete_label("W36K")
"MET"
>>> discrete_label("N59E")
"MET"
>>> discrete_label("Q1S")
"MET"
>>> discrete_label("L8A")
"NOT MET"
>>> discrete_label("Y9K")
"MET"
>>> discrete_label("K40S")
"MET"
>>> discrete_label("V5E")
"NOT MET"
>>> discrete_label("D12F")
"MET"
>>> discrete_label("Y11F")
"MET"
>>> discrete_label("H15R")
"MET"
>>> discrete_label("K23E")
"MET"
>>> discrete_label("W36T")
"MET"
>>> discrete_label("W37I")
"MET"
>>> discrete_label("V5M")
"NOT MET"
>>> discrete_label("L42Q")
"NOT MET"
>>> discrete_label("G2I")
"MET"
>>> discrete_label("N53K")
"MET"
>>> discrete_label("Q1F")
"MET"
>>> discrete_label("P51R")
"NOT MET"
>>> discrete_label("Y9T")
"NOT MET"
>>> discrete_label("H15S")
"MET"
>>> discrete_label("Q1K")
"MET"
>>> discrete_label("N53W")
"MET"
>>> discrete_label("K28A")
"MET"
>>> discrete_label("E32I")
"MET"
>>> discrete_label("V55M")
"NOT MET"
>>> discrete_label("D17F")
"MET"
>>> discrete_label("G24N")
"MET"
>>> discrete_label("I14S")
"MET"
